Listed next: entries and their corresponding Emax.
Target: human sphingosine-1-phosphate receptor 1 (S1P1) (Homo sapiens, UniProt P21453)
Assay: β-Arrestin2 recruitment assay (PathHunter), S1P1 CHO-K1 cells
Assay type: cell-based
Details: CHO-K1; efficacy normalized to maximum efficacy of fingolimod; read-out: hS1P1 B-arrestin2 SPAN
Sequence (P21453 whole entry): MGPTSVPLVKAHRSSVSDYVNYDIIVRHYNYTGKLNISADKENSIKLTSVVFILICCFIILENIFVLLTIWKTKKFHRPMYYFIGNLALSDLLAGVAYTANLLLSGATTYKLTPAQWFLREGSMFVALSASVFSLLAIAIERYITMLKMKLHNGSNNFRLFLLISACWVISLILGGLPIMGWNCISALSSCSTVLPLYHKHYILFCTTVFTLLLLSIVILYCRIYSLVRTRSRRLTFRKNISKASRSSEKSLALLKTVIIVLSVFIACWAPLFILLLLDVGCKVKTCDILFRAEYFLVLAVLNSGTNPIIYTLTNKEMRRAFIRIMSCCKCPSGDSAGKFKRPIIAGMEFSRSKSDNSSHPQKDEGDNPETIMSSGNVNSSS
Sequence (P32121 whole entry partner): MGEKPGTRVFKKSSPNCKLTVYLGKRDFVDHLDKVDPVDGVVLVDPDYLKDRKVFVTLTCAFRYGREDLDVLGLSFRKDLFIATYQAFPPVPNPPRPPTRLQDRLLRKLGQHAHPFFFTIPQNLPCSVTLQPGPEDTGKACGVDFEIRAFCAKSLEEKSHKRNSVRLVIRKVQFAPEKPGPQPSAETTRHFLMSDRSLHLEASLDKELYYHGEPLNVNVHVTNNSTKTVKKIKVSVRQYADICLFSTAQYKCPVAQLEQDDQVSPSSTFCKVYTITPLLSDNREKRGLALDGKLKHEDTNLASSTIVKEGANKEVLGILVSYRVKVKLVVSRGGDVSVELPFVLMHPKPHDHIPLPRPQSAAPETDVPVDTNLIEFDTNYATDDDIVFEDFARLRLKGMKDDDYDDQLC

In the examples that follow, each entry is paired with its recorded Emax.
In [3]: df
Out[3]:
                                   compound  value_type  result
0  CCC1(CC)CC(=O)c2cc(-c3nc(-c4ccnc(S(N)(=O)=O)c4)no3)ccc2O1 [Compound 616]        Emax   > 75%
1  Cc1nccnc1-c1nc(-c2ccc3c(c2)nnn3CC(C)(C)CO)no1 [Compound 540]        Emax   < 75%
2  COc1ccccc1-c1nc(-c2ccc3c(c2)nnn3CC(C)(C)CO)no1 [Compound 525]        Emax   > 75%

Please turn your attention to the following entry.
For the compound CCC1(CC)CC(=O)c2cc(-c3nc(-c4ccc(C(F)(F)F)nc4)no3)ccc2O1 [Compound 548] , what Emax is on record?
< 75%

###

Molecular target: human sphingosine-1-phosphate receptor 1 (S1P1) (Homo sapiens, UniProt P21453)
Test: Inhibition of cAMP production (HTRF cAMP HiRange), S1P1 CHO-K1 cells
Format: cell-based
Conditions: inhibition of cAMP production, S1P1; read-out: hS1P1 CAMP pEC50 (converted)
Protocol: Stable clonal Chinese hamster ovary K1 (CHO-K1) cells co-expressing EA-β-arrestin2 and the human sphingosine-1-phosphate receptor 1 (NM_001400, S1P1) with a C-terminal Prolink™ tag were purchased from DiscoverX corporation (Cat #: 93-0207C2). […] Agonist-promoted G-protein responses were determined by measuring changes in intracellular cAMP using the HTRF® cAMP HiRange kit (CisBio, Cat #: 62AM6PEJ) based on time-resolved fluorescence resonance energy transfer (TR-FRET) technology. […]
Sequence (P21453 whole entry): as the sequence (P21453 whole entry) above
Listed next: entries and their corresponding EC50.

In the examples that follow, each entry is paired with its recorded EC50.
>>> df
                                     smiles                               system_name  value_type    result
0    COc1cc(NC(C)=O)ccc1-c1nc(-c2ccncc2)no1  human sphingosine-1-phosphate receptor 1 (S1P1) (Homo sapiens, UniProt P21453)        EC50  > 316 nM
1  CCC1(CC)CC(=O)c2cc(-c3nc(-c4cccc(OC)n4)no3)ccc2O1  human sphingosine-1-phosphate receptor 1 (S1P1) (Homo sapiens, UniProt P21453)        EC50  > 316 nM
2  Cc1occc1-c1noc(-c2ccc3c(c2)nnn3CC(C)(C)O)n1  human sphingosine-1-phosphate receptor 1 (S1P1) (Homo sapiens, UniProt P21453)        EC50  > 316 nM
3   CC(C)Cn1nnc2cc(-c3nc4c(Cl)cccc4o3)ccc21  human sphingosine-1-phosphate receptor 1 (S1P1) (Homo sapiens, UniProt P21453)        EC50  < 316 nM

Please turn your attention to the following entry.
Item CCC1(CC)CC(=O)c2cc(-c3nc(-c4ccc5ncoc5c4)no3)ccc2O1 with human sphingosine-1-phosphate receptor 1 (S1P1) (Homo sapiens, UniProt P21453) - EC50?
< 316 nM
